// data source = patent US20240116985A1

# assayed_target: full-length beta-Catenin (Uniprot ID P35222) (Homo sapiens (Human)) (UniProt P35222)
# Sequence (P35222 2-781 limits assumed): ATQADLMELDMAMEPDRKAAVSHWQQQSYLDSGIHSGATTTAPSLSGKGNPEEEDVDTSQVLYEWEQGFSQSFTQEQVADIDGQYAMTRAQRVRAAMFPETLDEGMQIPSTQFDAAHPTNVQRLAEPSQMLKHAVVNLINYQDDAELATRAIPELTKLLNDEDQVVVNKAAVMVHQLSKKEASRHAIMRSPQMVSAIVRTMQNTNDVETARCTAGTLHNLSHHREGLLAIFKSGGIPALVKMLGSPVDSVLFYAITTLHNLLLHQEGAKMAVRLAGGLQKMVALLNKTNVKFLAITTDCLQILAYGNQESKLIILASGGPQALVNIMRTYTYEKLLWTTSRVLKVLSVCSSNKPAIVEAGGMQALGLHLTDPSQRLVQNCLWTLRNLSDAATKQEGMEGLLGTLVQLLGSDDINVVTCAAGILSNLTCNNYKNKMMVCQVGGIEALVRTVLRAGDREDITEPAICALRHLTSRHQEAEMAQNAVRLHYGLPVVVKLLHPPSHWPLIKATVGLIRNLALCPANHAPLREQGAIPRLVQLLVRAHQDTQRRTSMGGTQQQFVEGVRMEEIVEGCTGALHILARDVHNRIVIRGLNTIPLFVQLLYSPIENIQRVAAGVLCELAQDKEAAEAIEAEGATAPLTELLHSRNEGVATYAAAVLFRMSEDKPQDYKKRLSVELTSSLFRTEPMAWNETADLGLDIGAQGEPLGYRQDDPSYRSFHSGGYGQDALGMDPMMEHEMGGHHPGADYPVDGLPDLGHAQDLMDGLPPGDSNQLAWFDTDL
# method_summary: fluorescence polarization competition; peptide displaces 5FAM-TCF4(10-53) from full-length beta-catenin
Starred links: 1 amine or outer side, 2 acyl side, 3 side chain; linkers in the order of their positions; H or OH if unused. Positions of bridges follow the written chain, without caps; N, C: chain ends. Non-standard residues stand in square brackets, D forms with d. Primed or numbered codes have the meaning given here. PyrS2 = (S)-3-amino-1-((pent-4-en-1-yloxy)carbonyl)pyrrolidine-3-carboxylic acid, C=CCCCOC(=O)N1CC[C@@](N[*:1])(C(=O)[*:2])C1; B5(13) = 2-amino-2-(pent-4-en-1-yl)hept-6-enoic acid (two alkene chains), C=CCCCC(CCCC=C)(N[*:1])C(=O)[*:2]; B5(3) = 2,2-bis(4-pentenyl)glycine (stitching residue), C=CCCCC(CCCC=C)(N[*:1])C(=O)[*:2]; Phe(2-Cl) = N[C@@H](Cc1ccccc1Cl)C(=O)O; Phe(2-OMe) = COc1ccccc1C[C@H](N)C(=O)O; 1Nal = N[C@@H](Cc1cccc2ccccc12)C(=O)O; 2Nal = N[C@@H](Cc1ccc2ccccc2c1)C(=O)O; Phe(2-Me) = Cc1ccccc1C[C@H](N)C(=O)O; Bta = N[C@@H](Cc1csc2ccccc12)C(=O)O; αAllylPro = C=CC[C@@]1(C(=O)O)CCCN1; tBuAla = CC(C)(C)C[C@H](N)C(=O)O; 3Thi = N[C@@H](Cc1ccsc1)C(=O)O
Listed binders paired with reported pIC50
FYI, pIC50 means -log10 of a concentration in mol per litre.

Solved entries (count: 6):
binder	quantitative_readout
Ac-[αAllylPro]D[tBuAla][B5(3)]DDAAFN[PyrS2][3Thi][2Nal]H-NH2 (staple 1-4, 4-11) [I-790]	7.62
Ac-[αAllylPro]D[tBuAla][B5(13)]DDAAFN[PyrS2]F[Bta]H-NH2 (staple 1-4, 4-11) [I-777]	8.30
Ac-[αAllylPro]D[tBuAla][B5(3)]DDAAFN[PyrS2][3Thi][1Nal]H-NH2 (staple 1-4, 4-11) [I-789]	7.72
Ac-[αAllylPro]D[tBuAla][B5(13)]DDAAFN[PyrS2][Phe(2-OMe)][Bta]H-NH2 (staple 1-4, 4-11) [I-781]	8.30
Ac-[αAllylPro]D[tBuAla][B5(13)]DDAAFN[PyrS2][Phe(2-Me)][Bta]H-NH2 (staple 1-4, 4-11) [I-782]	8.22
Ac-[αAllylPro]D[tBuAla][B5(3)]DEAAFN[PyrS2][3Thi][Bta]-NH2 (staple 1-4, 4-11) [I-786]	8.10

Switching to the query record.
Please give measured pIC50 of the following entry: Ac-[αAllylPro]D[tBuAla][B5(3)]DDAAFN[PyrS2][Phe(2-Cl)][Bta]H-NH2 (staple 1-4, 4-11) [I-784]
8.22
